- assay.procedure: Compound was tested for inhibitory activity against type II Phospholipase A2 (PLA2) isolated from japanese mamushi (Agkistrodon halys blomhoffii) venom
metric: IC50 (µM)
Use µM as the unit, but write only the number.

Example compounds with recorded IC50:
CCCCCCCCCCCC(=O)N1C(=O)O[C@H](COP(=O)([O-])OCC[N+](C)(C)C)[C@@H]1CCC
52.9
CCCCCCCCCCCC(=O)N[C@H](CCCC)COP(=O)([O-])OCC[N+](C)(C)C
5.3
CCCCCCCCCCCC(=O)N1C(=O)O[C@@H](COP(=O)([O-])OCC[N+](C)(C)C)[C@@H]1CCC
40.1
CCCCCCCCCCCC(=O)N1C(=O)O[C@H](COP(=O)([O-])OCC[N+](C)(C)C)[C@H]1CCC
19.8
CCCCCCCCCCCC(=O)N1C(=O)OC[C@@H]1COP(=O)([O-])OCC[N+](C)(C)C
31.3

Could you now look at the following compound, please?
**Q:** Param item = CCCCCCCCCCCC(=O)N1C(=O)O[C@@H](COP(=O)([O-])OCC[N+](C)(C)C)[C@H]1CCC ; retrieve measured IC50.
**A:** 45.8

Origin of the recorded values: BindingDB's records for doi:10.1016/s0960-894x(98)00641-6
